For each entry below, report its IC50 value.
- System: LNCaP
- Measurement notes: Cytotoxicity against human LNCAP cells after 48 hrs by WST-1 assay
- Format: functional, cell-based

Bench note, LNCaP: C/C=C(/C)C(=O)O[C@@H]1C[C@H]2C(=C1C)[C@@H]1OC(=O)[C@@](C)(O)[C@@]1(O)[C@@H](OC(=O)CCOCCOCCOCCOCCn1cc(COCCOCCOCCOCCNC(=O)CCOCCOCCOCCOCCn3cc(COc4ccc(C5=C6C=CC=[N+]6[B-](F)(F)n6cccc65)cc4)nn3)nn1)C[C@]2(C)OC(C)=O , IC50 reads > 50 µM

Bench note, LNCaP: F[B-]1(F)n2cccc2C=C2C=CC=[N+]21 , IC50 reads > 50 µM

Bench note, LNCaP: C/C=C(/C)C(=O)O[C@@H]1C[C@H]2C(=C1C)[C@@H]1OC(=O)[C@@](C)(O)[C@@]1(O)[C@@H](OC(=O)CCOCCOCCOCCOCCOCCOCCOCCOCCOCCOCCn1cc(COc3ccc(C4=C5C=CC=[N+]5[B-](F)(F)n5cccc54)cc3)nn1)C[C@]2(C)OC(C)=O , IC50 reads > 50 µM
